Test system: Fibroblast
Test Summary: Multiplex assay against human fibroblast
Format: toxicity, cell-based
Condition Info: 24 h, 1 µM, compound concentration 1 uM, replicate 1
Quantity Measured: Total Cell Count
Reply with the value as a number alone.

Below, each entry is followed by its recorded Total Cell Count result.
Molecule	Quantity Measured	Data Value
CCC(=O)O[C@]1(C(=O)SCF)[C@H](C)C[C@H]2[C@@H]3C[C@H](F)C4=CC(=O)C=C[C@]4(C)[C@@]3(F)[C@@H](O)C[C@@]21C [FLUTICASONE PROPIONATE]	Total Cell Count	75
CNC(=O)c1cc(Oc2ccc(NC(=O)Nc3cc(C(C)(C)C)nn3-c3ccc4ncccc4c3)c(F)c2)ccn1 [REBASTINIB]	Total Cell Count	239
CN(C)C/C=C/C(=O)Nc1cc2c(Nc3ccc(F)c(Cl)c3)ncnc2cc1O[C@H]1CCOC1.O=C(O)/C=C\C(=O)O.O=C(O)/C=C\C(=O)O [AFATINIB DIMALEATE]	Total Cell Count	247
Cc1cc2c(cc1N1C(=O)c3cccc4c(CCCO)ccc(c34)C1=O)n(C)c(=O)n2C	Total Cell Count	130
Nc1ccc(C(=O)Nc2cccc(-c3nc(N4CCOCC4)c4oc5ncccc5c4n3)c2)cn1	Total Cell Count	169

// query Name the reported Total Cell Count value associated with the molecule CCOc1cc(N2CCC(O)CC2)ccc1Nc1ncc2c(n1)N(C1CCCC1)CCC(=O)N2C
// result 211

// query Likewise for CCCn1c(=O)c2[nH]c(C34CC5CC(CC3C5)C4)nc2n(CCC)c1=O [ROLOFYLLINE] ?
// result 109

---

System: HEK-293T
Test Summary: Multiplex assay against HEK293T;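 on Population Tubulin-Different-Phenotype (%): share of the cells with healthy nuclei that show this phenotype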
Format: toxicity, cell-based
Condition Info: human, 24 h, 1 µM, compound concentration 1 uM, replicate 2
Outcome label depends on Population Tubulin-Different-Phenotype (%) relative to 40%: at/above gives Criterion met, below gives Criterion not met.

Worked cases, answers included:
In [3]: df
Out[3]:
                                   compound         class_name
0  Cl.Cl.Nc1ncnc2c1c(-c1cccc(OCc3ccccc3)c1)cn2[C@H]1C[C@@H](CN2CCC2)C1      Criterion met
1             CNc1oc(-c2cccc3ccccc23)nc1C#N  Criterion not met

// query Quick check, Population Tubulin-Different-Phenotype (%) >= 40%? COc1cc2c(NC3CCN(C(C)C)CC3)nc(N3CCC(F)(F)CC3)nc2cc1OCCCN1CCCC1
// result Criterion met

// query Okay, and CCc1cc2c(cc1CC)CC(NC[C@H](O)c1ccc(O)c3[nH]c(=O)ccc13)C2 [INDACATEROL] ?
// result Criterion met

// query Also Cc1nc(Cc2cccc(C(F)(F)F)c2)sc1-c1ccc(C(N)=O)nc1 [TP-024n] , if possible.
// result Criterion not met

---

Test system: U2OS
Test Summary: Multiplex assay against U2OS
Format: toxicity, cell-based
Condition Info: human, 48 h, 1 µM, compound concentration 1 uM, replicate 2
Tag: condition met if measured Population Mitotic Cells (%) is not below 70%, condition not met if it is.

                                   compound         class_name
0  O=C(O)c1ccc2cc(-c3ccc(O)c(C45CC6CC(CC(C6)C4)C5)c3)ccc2c1  condition not met
1  CCn1c(-c2nonc2N)nc2cnc(Oc3cccc(NC(=O)c4ccc(OCCN5CCOCC5)cc4)c3)cc21 [GSK-269962A]  condition not met
2  Cl.Cl.Nc1ncnc2c1c(-c1cccc(OCc3ccccc3)c1)cn2[C@H]1C[C@@H](CN2CCC2)C1  condition not met
3  CCCn1c(=O)c2[nH]c(C34CC5CC(CC3C5)C4)nc2n(CCC)c1=O  condition not met

Now look at this entry.
// query Given Nc1ccc(C(=O)Nc2cccc(-c3nc(N4CCOCC4)c4oc5ncccc5c4n3)c2)cn1 , state whether its Population Mitotic Cells (%) is at least 70%.
// result condition met

---

System: U2OS
Test Summary: Multiplex assay against U2OS
Type: toxicity, cell-based
Condition Info: human, 48 h, 10 µM, compound concentration 10 uM, replicate 1
As shown below, each of these compounds has a reported Population Healthy Nuclei (%) value.

                                   compound  system_name              quantity_measured  data_value
0  Cc1nc(Cc2cccc(C(F)(F)F)c2)sc1-c1ccc(C(N)=O)nc1 [TP-024n]         U2OS  Population Healthy Nuclei (%)         56%
1  COc1ccc(NS(=O)(=O)c2sc3ccc(Cl)cc3c2C)cc1N1CCNCC1.Cl         U2OS  Population Healthy Nuclei (%)         37%
2  CCn1c(-c2nonc2N)nc2cnc(Oc3cccc(NC(=O)c4ccc(OCCN5CCOCC5)cc4)c3)cc21 [GSK-269962A]         U2OS  Population Healthy Nuclei (%)         43%

Moving on to another compound below.
// query U2OS / Population Healthy Nuclei (%) / CNc1oc(-c2cccc3ccccc23)nc1C#N : value?
// result 18%

---

Tested on: Fibroblast
Test Summary: Multiplex assay against human fibroblast
Type: toxicity, cell-based
Condition Info: 48 h, 1 µM, compound concentration 1 uM, replicate 1
Quantity Measured: Population Apoptotic (%)
// units = %; emit number, no label

Compound	System Name	Unit Text	Population Apoptotic (%)
Nc1nc2c(c(N3CCNCC3)n1)CCC1=C2[C@@H]2CCCC[C@@H]2O1	Fibroblast	%	71
CNc1oc(-c2cccc3ccccc23)nc1C#N	Fibroblast	%	40
COc1cc2c(NC3CCN(C(C)C)CC3)nc(N3CCC(F)(F)CC3)nc2cc1OCCCN1CCCC1	Fibroblast	%	52

// query Please provide the recorded Population Apoptotic (%) for COc1ccc(NS(=O)(=O)c2sc3ccc(Cl)cc3c2C)cc1N1CCNCC1.Cl , tested on Fibroblast.
// result 66

// query Thanks! And CC(=O)c1cc(-c2cc(C(=O)NC3CC3)ccc2C)c2ncccn12 ?
// result 42

// query Quick one: CC(C)N1CCC(C)(C)c2cc(C#Cc3ccc(C(=O)O)cc3)ccc21
// result 57

// query Entry Nc1ccc(C(=O)Nc2cccc(-c3nc(N4CCOCC4)c4oc5ncccc5c4n3)c2)cn1 please
// result 66

// query And for Cl.Cl.Nc1ncnc2c1c(-c1cccc(OCc3ccccc3)c1)cn2[C@H]1C[C@@H](CN2CCC2)C1 ?
// result 83

// query Next record, please: Cc1cc2c(cc1N1C(=O)c3cccc4c(CCCO)ccc(c34)C1=O)n(C)c(=O)n2C
// result 34

// query Okay, and O=C(O)c1ccc2cc(-c3ccc(O)c(C45CC6CC(CC(C6)C4)C5)c3)ccc2c1 ?
// result 78

---

Test system: HEK-293T
Test Summary: Multiplex assay against HEK293T
Format: toxicity, cell-based
Condition Info: human, 24 h, 1 µM, compound concentration 1 uM, replicate 1
Here the recorded Population Mitochondria Different-Phenotype (%) is given for each entry.
Write it as a number; the unit % goes unstated.

Molecule	Data Value
N#Cc1cnc(Nc2cc(NC[C@H]3CNCCO3)c(C(F)(F)F)cn2)cn1	2
COc1cc(N2CCC(N(C)C)CC2)ccc1Nc1ncc(Cl)c(Nc2ccccc2P(C)(C)=O)n1	8
CCOc1cc(N2CCC(O)CC2)ccc1Nc1ncc2c(n1)N(C1CCCC1)CCC(=O)N2C	4
Cl.Cl.NC1(c2ccc(-c3nc4ccn5c(=O)[nH]nc5c4cc3-c3ccccc3)cc2)CCC1	8
COc1cc2c(Nc3ccc(NC(=O)c4ccccc4)cc3)ncnc2cc1OCCCN1CCOCC1	22
CCn1c(-c2nonc2N)nc2cnc(Oc3cccc(NC(=O)c4ccc(OCCN5CCOCC5)cc4)c3)cc21 [GSK-269962A]	75
Cc1cn(-c2cc(NC(=O)c3ccc4c(c3)CN(c3cncnc3)C[C@@H]4C)cc(C(F)(F)F)c2)cn1	3
Cc1nc(Cc2cccc(C(F)(F)F)c2)sc1-c1ccc(C(N)=O)nc1 [TP-024n]	55

// query Which value of Population Mitochondria Different-Phenotype (%) has been reported for CC(C)(C)c1cnc(CSc2cnc(NC(=O)C3CCNCC3)s2)o1 in the records?
// result 9

// query Queued: Nc1nc2c(c(N3CCNCC3)n1)CCC1=C2[C@@H]2CCCC[C@@H]2O1
// result 70

// query Param item: CCc1cc2c(cc1CC)CC(NC[C@H](O)c1ccc(O)c3[nH]c(=O)ccc13)C2
// result 70

// query Repeat with CNC(=O)c1nn(C)c2c1C(C)(C)Cc1cnc(Nc3ccc(N4CCN(C)CC4)cc3)nc1-2
// result 64

---

Test system: Fibroblast
Test Summary: Multiplex assay against human fibroblast
Type: toxicity, cell-based
Condition Info: 48 h, 1 µM, compound concentration 1 uM, replicate 2
Quantity Measured: Population Apoptotic (%)

Known results for molecules:
Molecule	System Name	Data Value
COc1cc2c(NC3CCN(C(C)C)CC3)nc(N3CCC(F)(F)CC3)nc2cc1OCCCN1CCCC1	Fibroblast	69%
Cc1nc(Cc2cccc(C(F)(F)F)c2)sc1-c1ccc(C(N)=O)nc1 [TP-024n]	Fibroblast	33%
Cc1cc2c(cc1N1C(=O)c3cccc4c(CCCO)ccc(c34)C1=O)n(C)c(=O)n2C	Fibroblast	100%
Cl.Cl.Nc1ncnc2c1c(-c1cccc(OCc3ccccc3)c1)cn2[C@H]1C[C@@H](CN2CCC2)C1	Fibroblast	50%
COc1ccc(NS(=O)(=O)c2sc3ccc(Cl)cc3c2C)cc1N1CCNCC1.Cl	Fibroblast	100%

API: the following record is the query input.
// query Give Fibroblast Population Apoptotic (%) for CCCn1c(=O)c2[nH]c(C34CC5CC(CC3C5)C4)nc2n(CCC)c1=O [ROLOFYLLINE]
// result 0%
